Origin of values: PubChem BioAssay AID1159580

Entries annotated with measured normalized growth
# ASSAY INFO: chemical genetic growth profiling, strain panel (AID 1159580);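 note: tested at 20 µM; growth read once vehicle control cultures reached saturation at 30 °C; 1 = growth at the plate median or of vehicle wells; lower values mean less growth of the strain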
# CONDITION PARAMETERS: S. cerevisiae deletion strains, growth OD, locus YNL183C, strain NPR1, active compounds read low
The campaign covered roughly 5,500 compounds. About 2,000 (36%) were called active. Inconclusive results (about 18%) are left out. The list shows a part of the results.
# respond with the number and nothing more

>  <MOLECULE>
COc1c(-c2coc3cc4c(cc3c2=O)CC(O)C(C)(C)O4)ccc2c1C=CC(C)(C)O2 (stereo not given)

>  <VALUE TYPE>
normalized growth

>  <RESULT VALUE>
0.922

$$$$

Using known records, supply normalized growth for COc1cccc2c1C(=O)c1c(O)c3c(c(O)c1C2=O)C[C@@](O)(C(C)=O)C[C@@H]3O[C@H]1C[C@H](N)[C@H](O)[C@H](C)O1
0.971

Using known records, supply normalized growth for COc1cccc2c1C(=O)c1c(O)c3c(c(O)c1C2=O)C[C@@](O)(C(=O)CO)C[C@@H]3O[C@H]1C[C@H](N)[C@@H](O)[C@H](C)O1
0.935

====

Entries annotated with measured normalized growth
# ASSAY INFO: chemical genetic growth profiling, strain panel (AID 1159580);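 note: tested at 20 µM; growth read once vehicle control cultures reached saturation at 30 °C; 1 = growth at the plate median or of vehicle wells; lower values mean less growth of the strain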
# CONDITION PARAMETERS: S. cerevisiae deletion strains, growth OD, locus YMR231W, strain pep5, active compounds read low
The campaign covered roughly 5,500 compounds. About 2,000 (36%) were called active. About 18% were inconclusive and are not listed. The list shows a part of the results.
# respond with the number and nothing more

>  <COMPOUND>
Cc1cc(O)cc(=O)o1

>  <normalized growth>
1.01

$$$$

Using known records, supply normalized growth for C[C@@H]1CC[C@H]2[C@@H](C)C(O)O[C@@H]3O[C@@]4(C)CC[C@@H]1[C@]32OO4 (stereo partly drawn)
0.84

Using known records, supply normalized growth for CC1(C)CC[C@]2(C(=O)O)CC[C@]3(C)C(=CCC4[C@@]5(C)CC[C@@H](O)C(C)(C)C5CC[C@]43C)C2C1 (stereo partly drawn)
1.02

====

# ASSAY INFO: chemical genetic growth profiling, strain panel (AID 1159580);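 note: tested at 20 µM; growth read once vehicle control cultures reached saturation at 30 °C; 1 = growth at the plate median or of vehicle wells; lower values mean less growth of the strain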
# CONDITION PARAMETERS: S. cerevisiae deletion strains, growth OD, locus YBR229C, strain ROT2, active compounds read low
The whole screen tested about 5,500 compounds, of which about 2,000 (36%) were called active. Another 18% or so got no clear call; they are omitted. The list shows a part of the results. Where a SMILES comes first, the peptide text is derived from it. Bridges are numbered along the chain shown (N, C = ends). [ ]: non-standard residue; d: D form. The star is where a group is joined. ξ: configuration not given here. ξDab(CH2SO3H) = NC(CCNCS(=O)(=O)O)C(=O)O; Heptanoyl(6-Me) = CC(C)CCCCC(=O)*; Dab = NCC[CH](N)C(=O)O
VALUE TYPE: normalized growth

Observe how each entry below is paired with its result.
>  <COMPOUND>
CCC(C)C1NC(=O)C(CCNCS(=O)(=O)O)NC(=O)C(NC(=O)C(CCNCS(=O)(=O)O)NC(=O)C(NC(=O)C(CCNCS(=O)(=O)O)NC(=O)CCCCC(C)C)C(C)O)CCNC(=O)C(C(C)O)NC(=O)C(CCNCS(=O)(=O)O)NC(=O)C(CCNCS(=O)(=O)O)NC(=O)C(C(C)CC)NC1=O (stereo unspecified) ({Heptanoyl(6-Me)}-[ξDab(CH2SO3H)]T[ξDab(CH2SO3H)][Dab][ξDab(CH2SO3H)]II[ξDab(CH2SO3H)][ξDab(CH2SO3H)]T; lactam 4-C; configuration not given here)

>  <RESULT VALUE>
0.987 (inactive)

$$$$
>  <COMPOUND>
CC1=CCC2C3(C)C1=CC(=O)OC3CC1C(C)(C)CC(O)C(O)C12C (stereo unspecified)

>  <RESULT VALUE>
1.02 (inactive)

$$$$
>  <COMPOUND>
O=C(Nc1cc2cc([N+](=O)[O-])ccc2oc1=O)c1c(F)cccc1F

>  <RESULT VALUE>
1.02 (inactive)

$$$$
>  <COMPOUND>
C#C[C@]1(O)CCC2C3CCC4=CC(=O)CC[C@@H]4C3CC[C@@]21C (stereo partly specified)

>  <RESULT VALUE>
0.997 (inactive)

$$$$
>  <COMPOUND>
CCN(CC)c1ccc(NC(=O)c2c(F)cccc2F)c(N(CC)CC)n1

>  <RESULT VALUE>
0.98 (inactive)

$$$$

Could you now look at the following compound, please?
Using known records, supply normalized growth for C#C[C@]1(O)CCC2C3CCC4=C(CCC(=O)C4)C3CC[C@@]21C (stereo partly specified)
1.01 (inactive)
